# Test system: hedgehog signaling pathway
# experiment: Gli-Luc Reporter Assay for Hh Pathway Inhibition (TMHh-12 cells, pTA-8×Gli-Luc reporter)
# Format: cell-based, Mouse
# details: Mus musculus, TMHh12, enzymatic and cellular assays for the inhibition of hedgehog signaling pathways; read-out: IC50 Ranges
pIC50: −log10 of the molar value.

smiles_entry: Clc1ccc(Nc2cccc3c2CCN(c2nn[nH]n2)C3)cc1-c1ncc(-c2ccccc2)[nH]1
pIC50: 8.00 to 9.00

smiles_entry: Cc1ccc(Nc2cccc3c2CCN(S(C)(=O)=O)C3)cc1-c1cc2ccccc2cn1
pIC50: 9.00 to 12.00

smiles_entry: Cc1ccc(Nc2cccc3c2CCN(S(C)(=O)=O)C3)cc1C(=O)Nc1ccc(C#N)cc1
pIC50: 9.00 to 12.00

smiles_entry: COc1cncc(-c2cc(Nc3cccc4c3CCN(S(C)(=O)=O)C4)ccc2C)n1
pIC50: 6.00 to 7.00

smiles_entry: Cc1ccc(Nc2cccc3c2CCN(S(C)(=O)=O)C3)cc1-c1ccc(C(N)=O)cc1
pIC50: 6.00 to 7.00

smiles_entry: Cc1ccc(Nc2cccc3c2CCN(S(C)(=O)=O)C3)cc1-c1cc(F)ccn1
pIC50: 8.00 to 9.00

smiles_entry: Cc1ccc(-c2cc(Nc3cccc4c3CCN(C3CCS(=O)(=O)CC3)C4)ccc2C)nc1
pIC50: 9.00 to 12.00

Recorded values, source patent US9216964B2.
